Target: T1, SNTB1, Q13884
T1 sequence (Q13884 107-205, limits assumed, looked up): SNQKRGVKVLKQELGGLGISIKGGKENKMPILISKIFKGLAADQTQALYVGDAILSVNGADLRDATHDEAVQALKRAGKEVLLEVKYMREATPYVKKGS
Assay: holdup assay
Design: key: below the threshold = too weak to quantify, mostly under pKd 3.1 to 4
Settings: plain residues with an end cap or a label only (N-terminal biotin on a linker: ado-ado)
measured-attribute: pKd

FVFESRKEIL [TBPL1, P62380]
below the threshold
RGKNRRQSIF [CDK18, Q07002]
below the threshold
SGDGKTSVWI [GJC1, P36383]
below the threshold
PKSNSSKEYV [CLDN7, O95471]
below the threshold
PLPPEEESWV [GAS2L2, Q8NHY3]
4.86

Hey, can you go through the list below and give me pKd for every item?
1. NNMAFETTHF [SLC5A12, Q1EHB4]
2. IQISELETNV [SLC1A7, O00341]
3. ATKDKKITTV [EXOC4, Q96A65]

output:
below the threshold
5.37
4.34
